This listing pairs molecules with measured TGI.
# Test system: DU-145 prostate
# assay.summary: NCI tumour cell line growth inhibition, 48 h

1. CCOC(=O)N1CCN(Cc2cc(=O)n3cc(C)ccc3n2)CC1 = > 100 µM
2. O=C1c2cc3c(cc2-c2c1c1cc(Cl)c(Cl)cc1c(=O)n2CCCn1ccnc1)OCO3 = 59.9 µM
3. O/N=C1\CCc2cc(-c3nc(C4CCNCC4)[nH]c3-c3ccncc3)ccc21 = > 25 µM
4. CSC(SC)=C1C(=O)NN=C1C = > 100 µM
5. COC(=O)C1Cc2c([nH]c3ccccc23)C(c2cccc(O)c2)N1 (centres undefined) = 55.3 µM
6. CCOC(=O)c1c(O)[nH]c(=O)c(CC)c1C = > 100 µM

So what does the record say about TGI for COC(=O)c1cnc(=O)n(C2CC(O)C(CO)O2)c1 (centres undefined) ? > 100 µM

May I ask what TGI has been recorded for CC1(C)N=C(N)N=C(N)N1c1cccc(/C=C/C=C/c2cccc([N+](=O)[O-])c2)c1 ? 20.2 µM

Which value of TGI has been reported for CC1(C)CC(=O)C2=C(C1)NC(SSC1=C(C#N)C(c3ccccc3)C3=C(CC(C)(C)CC3=O)N1)=C(C#N)C2c1ccccc1 (centres undefined) in the records? 126 µg/mL

Item COc1ccc(NC(=O)CC(=O)n2nc(C)c(N=Nc3ccc(C)c(C)c3)c2C)cc1 has what recorded TGI? > 100 µM

Given COc1ccc(/C(=C/c2cc(OC)c(OC)c(OC)c2)[N+](=O)[O-])cc1 , state its recorded TGI. 3.14 µM

What does the data say about its TGI? Entry: CC(C)C1CC=NN1C(=O)OC(C)(C)C (centres undefined) > 100 µM

TGI lookup needed for CSCCC(NCc1c(O)ccc2ccc(=O)oc12)C(=O)O (centres undefined) , thanks. > 100 µM

---

# System: RPMI-8226 leukemia
# assay.summary: NCI tumour cell line growth inhibition, 48 h; in the data active means GI50 below about 0.43 µM; inactive means the rest
Form entry, call: pick from 1 (yes) = active, 0 (no) = inactive

1. Cc1cc(NC(=O)C2c3ccccc3C(=O)N(CC(C)C)C2c2cccs2)no1 (configuration not stated) = 0 (no)
2. O=c1c(Cl)nnc2sc3ccccc3n12 = 0 (no)
3. COc1cc2c3c(n(C)c(=O)c2cc1OC)-c1cc2c(cc1/C3=C\CCCCN)OCO2 = 0 (no)
4. COc1ccccc1C(=O)/C=C/c1cc2cccc(OC)c2[nH]c1=O = 1 (yes)
5. CC(=O)c1ccc(Nc2cc(-n3ccnc3)nc3ccccc23)cc1 = 0 (no)

// param item: Cc1cc2c(C)c3cc(C)c(N)cc3nc2cc1N ; yields the recorded call 0 (no)

Called result for COc1ccc(N(C)c2nc(C)nc3ccccc23)cc1 1 (yes)

---

Some molecules, each annotated with its measured TGI.
# System: LXFL 529 NSCLC
# assay.summary: NCI tumour cell line growth inhibition, 48 h

A selection of reference data follows.
1. CC(=O)Oc1c(C)n(CCCl)ccc1=O = > 100 µM
2. CCCCCCC(=O)C/C(CCC(=O)N(Cc1ccccc1)Cc1ccccc1)=N\Nc1ccc([N+](=O)[O-])cc1[N+](=O)[O-] = > 100 µM
3. CCOC(=O)C1C=C2O[C@@H]3OC4(CCCCC4)O[C@@H]3C2[C@H]2C(=O)C=CC(=O)[C@@]12C(=O)OC (stereo partly drawn) = 22.9 µM
4. O=C(O)C(CS)NCc1c2ccccc2[n+]([O-])c2ccccc12 (stereo not drawn) = 84.3 µM

Item under review: Cc1cc(C)nc(NS(=O)(=O)c2ccc(Nc3c4ccccc4nc4c(C(=O)Nc5ccc(S(N)(=O)=O)cc5)cccc34)cc2)n1 . Reported TGI? > 100 µM

Endpoint output: TGI of CC1=C(C(=O)Nc2ccccc2)C(c2ccc3c(c2)OCO3)C(C(=O)Nc2ccccc2)=C(C)N1 . Value? > 100 µM

---

Here the recorded TGI is given for each entry.
# System: NCI-H226 lung
# assay.summary: NCI tumour cell line growth inhibition, 48 h

These solved cases illustrate the format of a correct answer.
1. CC(Cl)(/C=C/Cl)C(Cl)/C=C/C(Cl)(CCl)CBr (stereo unspecified) = 22.9 µM
2. CC(=O)OC1/C(=C/c2ccc([N+](=O)[O-])cc2)C[C@H]2[C@@H]3CC=C4C[C@@H](OC(C)=O)CC[C@]4(C)[C@H]3CC[C@]12C (stereo partly specified) = > 100 µM
3. CC(C)C1CC=NN1C(=O)OC(C)(C)C (stereo unspecified) = > 100 µM
4. COc1ccc(N(C)c2nc(C)nc3ccccc23)cc1 = 0.534 µM

Dear colleague, I am looking for the recorded TGI of the following molecule: O=C(Nc1n[nH]c2nc(-c3ccco3)c(Br)cc12)C1CC1 > 25 µM

// query TGI value for entry Cc1ccc(S(=O)(=O)NC(CCC(=O)Nc2ccc(Cl)cc2)C(=O)Nc2ccc(Cl)cc2)cc1 (stereo unspecified) 5.67 µM

Any idea what TGI was measured for CC1=C2C(=O)O[C@@H](c3ccoc3)[C@]2(C)CCC1=O ? > 100 µM

Record request: TGI value, item O=C1NCC2(CCNCC2)N1c1ccccc1 > 100 µM

Entry under review: O=C(O)c1cccc(S(=O)(=O)NN2C(=O)CSC2c2ccccc2)c1 (stereo unspecified) . Reported TGI? > 100 µM

Name the reported TGI value associated with the molecule CC(C)=CC(=O)CC(=O)C(=O)Nc1ccc(C)c(C)c1 > 100 µM

Please give the measured TGI for this molecule: COc1c(Cl)ccc(Cl)c1C(=O)NNC(=O)c1c(Cl)c(Cl)c(Cl)c(Cl)c1-c1nc2ccc(C(=O)c3ccccc3)cc2[nH]1 > 100 µM

---

log10 of TGI values, listed per item
# Tested on: COLO 205 colon
# assay.summary: NCI tumour cell line growth inhibition, 48 h
On a log10 scale: recorded TGI, unit µM.

These solved cases illustrate the format of a correct answer.
1. OC1c2ccccc2[C@@H]2[C@H]1[C@@H](c1ccccc1)C1(Cc3ccccc3C1O)[C@H]2c1ccccc1 (stereo partly specified) = 0.56
2. C1=CN2C[n+]3cccc(OCc4ccccc4)c3N=C2C(OCc2ccccc2)=C1 = 1.26
3. CC(NC1=CC(=O)c2ncccc2C1=O)C(O)c1ccccc1 (stereo unspecified) = 1.47
4. O=C1/C(=C\c2ccc([N+](=O)[O-])cc2)Sc2scc(-c3ccc(O)c(O)c3)[n+]21 = 0.78
5. Cc1ccc(S(=O)(=O)N/N=C/C(Br)=C(/Br)C(=O)O)cc1 = 1.12
6. N#C/C(=C\c1c(-c2ccccc2)[nH]c2ccccc12)C(=O)c1ccc(Cl)cc1 = 0.73

Need log10 of TGI, item COc1ccc(/C=C2\CN(C(=O)CCN3CCC(=NO)CC3)C/C(=C\c3ccc(OC)cc3)C2=O)cc1 0.61

# get_value(readout='log10 of TGI', item= O=C(c1cccs1)c1c(C(F)(F)F)n([O-])c2ccc(C(F)(F)F)cc2[n+]1=O ) -0.04

Which log10 of TGI is reported for this molecule? C/C(=N\NC(=S)Nc1ccc(C(=O)O)cc1)c1ccccn1 1.54

---

# System: OVCAR-5 ovarian
# assay.summary: NCI tumour cell line growth inhibition, 48 h
Catalogue of TGI values
Numbers only; they are read as µM.

Some molecules with known TGI results, for comparison:
1. O=C1/C(=C\c2ccc([N+](=O)[O-])cc2)Sc2scc(-c3ccc(O)c(O)c3)[n+]21 = 35.4
2. Nc1nc(Cl)c(C=O)c(NCC2(CO)CC(CCc3ccccc3)C2)n1 (stereo unspecified) = 33.3

Entry under review: CCOC(=O)c1cnc(SCc2ccc(Cl)c(Cl)c2)nc1N1CC1 . Reported TGI? 19.4

---

# System: NCI-H23 lung
# assay.summary: NCI tumour cell line growth inhibition, 48 h; in the data active means GI50 below about 0.43 µM; inactive means the rest
// one of T = active, F = inactive, no free text

Check out these entries, answers already filled in.
1) Cc1ccc(S(=O)(=O)NC(CCC(=O)Nc2ccc(Cl)cc2)C(=O)Nc2ccc(Cl)cc2)cc1 (stereo unspecified) = F
2) COc1ccc(N(C)c2nc(C)nc3ccccc23)cc1 = T

Recorded test outcome, item O=C(c1cccs1)c1c(C(F)(F)F)n([O-])c2ccc(C(F)(F)F)cc2[n+]1=O T

# fetch the recorded call for COc1cccc(NC(=O)c2sc3nc4c(cc3c2N)CCCC4)c1 here F

Fill in: this test's call for COc1cc2cc(Oc3ccc(NC(=O)Nc4cccc(C(F)(F)F)c4)cc3)c(C)nc2cc1OCCN1CCCCC1 is ___ F

Which outcome did this test record for the molecule CC12OC(C(=O)C13CC3)C1C(=O)c3ccccc3C(=O)C12 (stereo unspecified) ? F

Which outcome did this test record for the molecule COC(=O)c1cnc(=O)n(C2CC(O)C(CO)O2)c1 (stereo unspecified) ? F

Which outcome was entered for the molecule N#C/C(=C\c1c(-c2ccccc2)[nH]c2ccccc12)C(=O)c1ccc(Cl)cc1 in this test? F

Tell me the recorded outcome of this test for O=c1c(Cl)nnc2sc3ccccc3n12 . F

For this molecule, state the assay outcome: Nc1ccn(C=C=CCO)c(=O)n1 F

// return assay outcome for O=C(c1ccccc1)c1nn(-c2ccc(Cl)cc2)c2nc3nc(-c4ccccc4)cc(=O)n3nc12 F

Source listed as PubChem BioAssay (NCI).
